// data source = paper PMC9631745

# test.system: human transferrin (Tf; hTf) (Homo sapiens)
# Sequence (P02787 20-698): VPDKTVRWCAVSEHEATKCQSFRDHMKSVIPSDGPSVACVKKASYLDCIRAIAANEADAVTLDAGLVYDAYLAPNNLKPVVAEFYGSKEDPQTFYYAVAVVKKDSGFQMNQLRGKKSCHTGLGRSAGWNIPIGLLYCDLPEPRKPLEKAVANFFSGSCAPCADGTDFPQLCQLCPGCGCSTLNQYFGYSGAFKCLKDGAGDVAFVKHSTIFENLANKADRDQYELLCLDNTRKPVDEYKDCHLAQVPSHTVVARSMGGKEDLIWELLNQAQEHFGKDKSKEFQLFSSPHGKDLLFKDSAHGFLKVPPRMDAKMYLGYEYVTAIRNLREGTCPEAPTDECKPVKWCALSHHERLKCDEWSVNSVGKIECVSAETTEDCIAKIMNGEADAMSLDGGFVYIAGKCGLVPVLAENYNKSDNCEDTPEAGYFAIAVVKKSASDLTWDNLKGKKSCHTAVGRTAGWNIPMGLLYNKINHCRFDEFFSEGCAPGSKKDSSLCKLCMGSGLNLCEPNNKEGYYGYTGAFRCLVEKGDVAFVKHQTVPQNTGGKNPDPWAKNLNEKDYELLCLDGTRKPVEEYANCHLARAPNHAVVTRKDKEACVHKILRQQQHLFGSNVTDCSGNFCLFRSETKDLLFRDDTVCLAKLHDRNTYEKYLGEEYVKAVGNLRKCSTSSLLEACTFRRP
# run.description: isothermal titration calorimetry
measured.endpoint: Kd (nM)
Dear colleague, please return just the value in nM, with no unit written.

Problem: Give Kd only, for C/C=C1\[C@H]2C=C(C)C[C@]1(N)c1ccc(=O)[nH]c1C2 [Huperzine A] , using human transferrin (Tf; hTf) (Homo sapiens) data.
Result: 1450
